- Test system: S. typhimurium strain TA100
- Assay type: cell-based
- test_conditions: 12.5 µM, TA100 without S9, 37 °C, 5 days, duplicate; MR ≥2 = mutagenic
Positions of bridges follow the written chain, without caps; N, C: chain ends. Non-standard residues stand in square brackets, D forms with d. Residues, ends and D or L forms follow the SMILES beside them. Triazole bridges read from a SMILES are 1,4-linked. Lys(N3) = [N-]=[N+]=NCCCC[C@H](N)C(=O)O; Pra = C#CC[C@H](N)C(=O)O
Kindly state mutagenicity ratio (MR) for each of the entries shown.

QUERY: Value wanted: mutagenicity ratio (MR) (S. typhimurium strain TA100) of entry CC(C)C[C@H](NC(=O)[C@@H]1CCCCn2cc(nn2)C[C@H](NC(=O)[C@H](CCCCN)NC(=O)[C@H](CO)NC(=O)[C@H](Cc2ccccc2)NC(=O)[C@H](Cc2c[nH]c3ccccc23)NC(=O)[C@@H]2CCCN2C(=O)[C@@H](NC(=O)[C@@H](N)Cc2ccccc2)C(C)C)C(=O)N[C@H](CC(C)C)C(=O)NCC(=O)N[C@@H](CCCNC(=N)N)C(=O)N1)C(N)=O [compound 7] (H-FVPWFSK[Pra][dL]GR[Lys(N3)]L-NH2; triazole 8-12; N-terminus assumed)
RESULT: < 2

QUERY: Value wanted: mutagenicity ratio (MR) (S. typhimurium strain TA100) of entry CC[C@H](C)[C@H](NC(=O)[C@H](CCCNC(=N)N)NC(=O)[C@@H]1CCC(=O)NCCCC[C@H](NC(=O)[C@H](Cc2ccccc2)NC(=O)[C@H](Cc2c[nH]c3ccccc23)NC(=O)[C@@H]2CCCN2C(=O)[C@@H](NC(=O)[C@@H](N)Cc2ccccc2)C(C)C)C(=O)N[C@@H](CCCCN)C(=O)N[C@@H](Cc2ccccc2)C(=O)N[C@H](CC(C)C)C(=O)N1)C(=O)N[C@@H](CC(C)C)C(N)=O [compound 3] (H-FVPWFKKF[dL]ERIL-NH2; lactam 6-10; N-terminus assumed)
RESULT: < 2

QUERY: Value wanted: mutagenicity ratio (MR) (S. typhimurium strain TA100) of entry CC[C@H](C)[C@H](NC(=O)[C@H](CCCNC(=N)N)NC(=O)[C@@H]1CCCCNC(=O)CC[C@H](NC(=O)[C@H](Cc2ccccc2)NC(=O)[C@H](Cc2c[nH]c3ccccc23)NC(=O)[C@@H]2CCCN2C(=O)[C@@H](NC(=O)[C@@H](N)Cc2ccccc2)C(C)C)C(=O)N[C@@H](CCCCN)C(=O)N[C@@H](Cc2ccccc2)C(=O)N[C@H](CC(C)C)C(=O)N1)C(=O)N[C@@H](CC(C)C)C(N)=O [compound 15] (H-FVPWFEKF[dL]KRIL-NH2; lactam 6-10; N-terminus assumed)
RESULT: < 2
